The reported numbers originate from ChEMBL document CHEMBL1201862.

Listing: GI50 of selected compounds
Tested on: ACHN
Experiment: NCI tumour cell line growth inhibition, 48 h
Active and inactive are the calls of the source. Cut-off read from the data, not from the text of the source: active = GI50 up to about 1.1 µM and inactive = higher.
EXPERIMENTAL_READOUT: GI50

                                   compound  experimental_readout                result
0        CCOC(=O)c1c2ccccc2n2c(=O)n(C)nnc12                  GI50  > 84.1 µM (inactive)
1                   CCOC(=O)CC1=CSC2=NCCN12                  GI50   > 100 µM (inactive)
2                  CCC1(CC)C(=O)NC(=S)N=C1N                  GI50   > 100 µM (inactive)
3  CC(=O)NC1(NC(C)=O)C2CC(C1Cc1ccccc1)C(C)(C)C2C (stereo unspecified)                  GI50   > 100 µM (inactive)
4  CCOC(=O)C1=C(C)NC(C)=C(C(=O)OCC)C1c1ccc(C)cc1                  GI50      43 µM (inactive)
5  CC[C@H]1[C@@H](C)C=C[C@@H](C)N1S(=O)(=O)c1ccc(C)cc1                  GI50      67 µM (inactive)
